Each entry below carries its reported IC50.
Biological target: purified HLA DRB1*1501 (human)
Assay: competition with 125I-labelled peptide for purified HLA
measured attribute: IC50

> print(dat)
                                     binder  data.value
1  YIQMCTELKLSDYEG (modifications not checked) [Flu.NP.43 peptide …]      594 nM
2  SLMLQIGNMISIWVSHS (modifications not checked) [Flu.NA.21 peptide …]       34 nM
3  IYQILSIYSTVASSLA (modifications not checked) [Flu.HA.529 peptide …]      4.7 nM
4  ILSIYSTVASSLALAI (modifications not checked) [Flu.HA.532 peptide …]       20 nM
